conditions: 293.15 K; 101.33 kPa; Liquid; Vibrating tube method
METRIC: mass density (kg/m3)
Expressed in kg/m3, but write only the number.

### Prompt Need mass density, item CCCCCO
### Response 814.53

### Prompt Also need CCC(C)O (stereo unspecified) , thanks.
### Response 806.56

### Prompt Also need CCCO , thanks.
### Response 803.92

### Prompt Also need CCCCO , thanks.
### Response 809.54

### Prompt Also need CC(C)O , thanks.
### Response 785.1

### Prompt Also need CCCCn1cc[n+](C)c1.O=S(=O)([O-])C(F)(F)F [1-butyl-3-methylimidazolium trifluoromethanesulfonate] , thanks.
### Response 1303.7

====

settings: 308.15 K; 101.33 kPa; Liquid; Sing-around technique in a fixed-path interferometer
± gives the expanded uncertainty stated by the source.
METRIC: speed of sound
State the value with its unit after it.

### Prompt Need speed of sound, item CCCCn1cc[n+](C)c1.O=S(=O)([O-])C(F)(F)F [1-butyl-3-methylimidazolium trifluoromethanesulfonate]
### Response 1369.1 ± 1.3 m/s

### Prompt Also need CCCCO [butan-1-ol] , thanks.
### Response 1205.9 ± 0.8 m/s

### Prompt Also need CCCCCO [pentan-1-ol] , thanks.
### Response 1242.4 ± 1.3 m/s

### Prompt Also need CCC(C)O (stereo not given) [butan-2-ol] , thanks.
### Response 1175.8 ± 0.9 m/s

### Prompt Also need CCCO [propan-1-ol] , thanks.
### Response 1172.6 ± 0.8 m/s

====

settings: 323.15 K; 101.33 kPa; Liquid; Vibrating tube method
METRIC: mass density (kg/m3)
Expressed in kg/m3, but write only the number.

### Prompt Need mass density, item CC(C)O [propan-2-ol]
### Response 758.7

### Prompt Also need CCCCCO [pentan-1-ol] , thanks.
### Response 792.15

### Prompt Also need CCC(C)O (stereo unspecified) [butan-2-ol] , thanks.
### Response 780.5

### Prompt Also need CCCO [propan-1-ol] , thanks.
### Response 779.33

### Prompt Also need CCCCO [butan-1-ol] , thanks.
### Response 786.15

### Prompt Also need CCCCn1cc[n+](C)c1.O=S(=O)([O-])C(F)(F)F [1-butyl-3-methylimidazolium trifluoromethanesulfonate] , thanks.
### Response 1279.9

====

Would you kindly list mass density for each of these compounds?
conditions: 308.15 K; 101.33 kPa; Liquid; Vibrating tube method
Expressed in kg/m3, but write only the number.

### Prompt Need mass density, item CCC(C)O (stereo unspecified) [butan-2-ol]
### Response 794

### Prompt Also need CCCO [propan-1-ol] , thanks.
### Response 791.84

### Prompt Also need CCCCn1cc[n+](C)c1.O=S(=O)([O-])C(F)(F)F [1-butyl-3-methylimidazolium trifluoromethanesulfonate] , thanks.
### Response 1291.7

### Prompt Also need CCCCO [butan-1-ol] , thanks.
### Response 798.01

### Prompt Also need CCCCCO [pentan-1-ol] , thanks.
### Response 803.52

### Prompt Also need CC(C)O [propan-2-ol] , thanks.
### Response 772.31
